- TGT: Metabotropic glutamate receptor 5 (Rattus norvegicus)
- MEASUREMENT NOTES: Displacement of [3H]MPEP from rat brain mGluR5 expressed in CHO cells by scintillation counting method
- Format: cell-based

COMPOUND: CCOC(=O)C1=C(C)NC(C)=C(C(=O)OCc2cn(CCOCCOCCOCCn3cc(COC(=O)C4=C(C)NC(C)=C(C(=O)OCC)C4c4c(-c5ccc(Br)cc5)noc4C)nn3)nn2)C1c1c(-c2ccc(Br)cc2)noc1C (stereo not given)
CENSORING OPERATOR: =
Ki [nM]: 546
//
COMPOUND: CCOC(=O)C1=C(C)NC(C)=C(C(=O)OCC)C1c1c(-c2ccccc2Br)noc1C
CENSORING OPERATOR: =
Ki [nM]: 1520
//
COMPOUND: CCOC(=O)C1=C(C)NC(C)=C(C(=O)OCC)C1c1c(-c2ccc(Br)cc2)noc1C
CENSORING OPERATOR: >
Ki [nM]: 10000
//
COMPOUND: CCOC(=O)C1=C(C)NC(C)=C(C(=O)OCc2cn(CCOCCOCCn3cc(COC(=O)C4=C(C)NC(C)=C(C(=O)OCC)C4c4c(-c5ccc(Br)cc5)noc4C)nn3)nn2)C1c1c(-c2ccc(Br)cc2)noc1C (stereo not given)
CENSORING OPERATOR: =
Ki [nM]: 933
//
COMPOUND: CCOC(=O)c1c(C)nc(C)c(C(=O)OCC)c1-c1c(-c2ccccc2)noc1C
CENSORING OPERATOR: >
Ki [nM]: 10000

----------
# reported IC50; entries follow
- TGT: Voltage-gated L-type calcium channel (Homo sapiens, UniProt Q13936+Q13698+Q01668+O60840)
- MEASUREMENT NOTES: Displacement of [3H]PN-200110 from voltage-dependent L-type calcium channel (unknown origin) by scintillation counting method

COMPOUND: CCOC(=O)C1=C(C)NC(C)=C(C(=O)OCc2cn(CCc3ccccc3)nn2)C1c1c(-c2ccc(Br)cc2)noc1C (stereo not drawn)
CENSORING OPERATOR: =
IC50 (nM): 127
--
COMPOUND: CCOC(=O)C1=C(C)NC(C)=C(C(=O)OCc2cn(CCOCCOCCOCCn3cc(COC(=O)C4=C(C)NC(C)=C(C(=O)OCC)C4c4c(-c5ccc(Br)cc5)noc4C)nn3)nn2)C1c1c(-c2ccc(Br)cc2)noc1C (stereo not drawn)
CENSORING OPERATOR: =
IC50 (nM): 516
--
COMPOUND: CCOC(=O)C1=C(C)NC(C)=C(C(=O)OCc2cn(CCOCCOCCn3cc(COC(=O)C4=C(C)NC(C)=C(C(=O)OCC)C4c4c(-c5ccc(Br)cc5)noc4C)nn3)nn2)C1c1c(-c2ccc(Br)cc2)noc1C (stereo not drawn)
CENSORING OPERATOR: =
IC50 (nM): 603
--
COMPOUND: CCOC(=O)C1=C(C)NC(C)=C(C(=O)OCc2cn(CCOCCOCCOCCOCCOCCn3cc(COC(=O)C4=C(C)NC(C)=C(C(=O)OCC)C4c4c(-c5ccccc5Br)noc4C)nn3)nn2)C1c1c(-c2ccccc2Br)noc1C (stereo not drawn)
CENSORING OPERATOR: >
IC50 (nM): 10000
--
COMPOUND: CCOC(=O)C1=C(C)NC(C)=C(C(=O)OCC)C1c1c(-c2ccccc2Br)noc1C
CENSORING OPERATOR: =
IC50 (nM): 909
--
COMPOUND: CCOC(=O)C1=C(C)NC(C)=C(C(=O)OCc2cn(CCOCCOCCOCCOCCOCCn3cc(COC(=O)C4=C(C)NC(C)=C(C(=O)OCC)C4c4c(-c5ccccc5)noc4C)nn3)nn2)C1c1c(-c2ccccc2)noc1C (stereo not drawn)
CENSORING OPERATOR: >
IC50 (nM): 10000
--
COMPOUND: CCOC(=O)C1=C(C)NC(C)=C(C(=O)OCC)C1c1c(-c2ccc(Br)cc2)noc1C
CENSORING OPERATOR: =
IC50 (nM): 36
--
COMPOUND: CCOC(=O)C1=C(C)NC(C)=C(C(=O)OCC)C1c1c(-c2cccc(Br)c2)noc1C
CENSORING OPERATOR: =
IC50 (nM): 208
